Biological target: Indoleamine 2,3-dioxygenase 1 (Homo sapiens)
Assay: Inhibition of N-terminal hexa-histidine tagged human IDO1 (12 to 403 residues) expressed in Escherichia coli Transetta (DE3) using L-tryptophan as substrate preincubated with enzyme for 10 mins followed by substrate addition and measured after 30 to 60 mins by microplate reader analysis
Sequence (P14902 whole entry, the tested form may be a part): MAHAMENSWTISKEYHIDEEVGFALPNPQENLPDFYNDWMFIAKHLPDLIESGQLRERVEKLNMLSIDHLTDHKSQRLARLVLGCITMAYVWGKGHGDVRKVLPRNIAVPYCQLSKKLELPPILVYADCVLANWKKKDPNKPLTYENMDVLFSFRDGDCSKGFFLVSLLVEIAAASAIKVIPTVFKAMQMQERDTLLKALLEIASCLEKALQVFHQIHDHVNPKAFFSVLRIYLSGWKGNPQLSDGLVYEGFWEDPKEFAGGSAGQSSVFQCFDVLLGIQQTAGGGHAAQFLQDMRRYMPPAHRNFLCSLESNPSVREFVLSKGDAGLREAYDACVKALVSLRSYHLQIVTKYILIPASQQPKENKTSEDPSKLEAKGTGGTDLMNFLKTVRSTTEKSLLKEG
pIC50: −log10 of the molar value.
So I've got a bunch of compounds here, and I need their pIC50 values.

Please give pIC50 for each item listed below.
1. FC(F)(F)c1cc(NCC2CNC2)c2cn[nH]c2c1
2. O=[N+]([O-])c1cc(Br)c(F)cc1CNc1cc(C(F)(F)F)cc2[nH]ncc12

[out]
["< 4.00", "< 4.00"]

For each entry beneath this line, provide reported pIC50.
1. Oc1ccc(CNc2cc(C(F)(F)F)cc3[nH]ncc23)c(Cl)c1
2. FC(F)(F)c1cc(NCc2cccc(Br)c2)c2cn[nH]c2c1

[out]
5.22
< 4.00

Here are 2 compounds. What values of pIC50 were reported for them?
1. FC(F)(F)c1cc(NC[C@H]2CCCN2)c2cn[nH]c2c1
2. Nc1cccc(CNc2cc(C(F)(F)F)cc3[nH]ncc23)c1

[out]
[5.02, "< 4.00"]

====

Could you please report measured IC50 for the items listed next?
Target: Tryptophan 2,3-dioxygenase (Homo sapiens, UniProt P48775)
Sequence (P48775 whole entry, the tested form may be a part): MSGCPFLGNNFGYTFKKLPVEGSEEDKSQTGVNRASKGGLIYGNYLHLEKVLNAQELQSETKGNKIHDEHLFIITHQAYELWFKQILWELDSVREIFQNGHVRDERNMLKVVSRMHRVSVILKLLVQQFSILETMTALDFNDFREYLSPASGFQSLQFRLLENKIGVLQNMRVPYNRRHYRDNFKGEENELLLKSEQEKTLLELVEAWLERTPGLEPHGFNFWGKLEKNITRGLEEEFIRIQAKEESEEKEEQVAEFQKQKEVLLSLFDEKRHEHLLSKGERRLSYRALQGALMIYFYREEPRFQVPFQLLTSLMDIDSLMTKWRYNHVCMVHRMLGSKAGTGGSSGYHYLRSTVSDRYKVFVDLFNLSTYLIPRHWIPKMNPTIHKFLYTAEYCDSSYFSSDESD
Assay: Inhibition of N-terminal hexa-histidine tagged human TDO (19 to 388 residues) expressed in Escherichia coli Transetta (DE3) using L-tryptophan as substrate preincubated with enzyme for 10 mins followed by substrate addition and measured after 30 to 60 mins by microplate reader analysis

Reference set (5 entries):
[[record]]
structure_smiles_string = "Nc1cccc(CNc2cc(C(F)(F)F)cc3[nH]ncc23)c1"
reported_value = "2.51 µM"

[[record]]
structure_smiles_string = "CS(=O)(=O)c1ccc(CNc2cc(C(F)(F)F)cc3[nH]ncc23)c([N+](=O)O)c1"
reported_value = "0.79 µM"

[[record]]
structure_smiles_string = "O=[N+]([O-])c1cccc(CNc2cc(C(F)(F)F)cc3[nH]ncc23)c1"
reported_value = "5.17 µM"

[[record]]
structure_smiles_string = "FC(F)(F)c1cc(NC[C@@H]2CCCCN2)c2cn[nH]c2c1"
reported_value = "8.05 µM"

[[record]]
structure_smiles_string = "O=[N+]([O-])c1ccccc1CNc1cc(Br)cc2[nH]ncc12"
reported_value = "38.9 µM"


Parameters: items (list). Returns: IC50 for each item.
1. FC(F)(F)c1cc(NCc2cccc3sccc23)c2cn[nH]c2c1
2. O=[N+]([O-])c1ccc(Cl)cc1CNc1cc(C(F)(F)F)cc2[nH]ncc12

[out]
1: > 100 µM; 2: 3.19 µM

Please supply IC50 for each of the following items, keeping them in order.
1. Oc1ccc(CNc2cc(C(F)(F)F)cc3[nH]ncc23)c(Cl)c1
2. CNC(=O)c1cccc(CNc2cc(C(F)(F)F)cc3[nH]ncc23)c1
3. COc1cc(CNc2cc(Br)cc3[nH]ncc23)c([N+](=O)[O-])cc1OC
4. NCCn1ncc2c(NCc3ccccc3[N+](=O)[O-])cc(C(F)(F)F)cc21
5. O=[N+]([O-])c1ccccc1CNc1cccc2[nH]ncc12
6. O=[N+]([O-])c1cccc(CNc2cc(Br)cc3[nH]ncc23)c1

[out]
1. 2.68 µM
2. 4.87 µM
3. 1.04 µM
4. > 100 µM
5. 17 µM
6. 1.6 µM

====

Please provide measured inhibition for the entries that follow.
Biological target: Indoleamine 2,3-dioxygenase 1 (Homo sapiens, UniProt P14902)
Test: Inhibition of N-terminal hexa-histidine tagged human IDO1 (12 to 403 residues) expressed in Escherichia coli Transetta (DE3) using L-tryptophan as substrate at 10 uM preincubated with enzyme for 10 mins followed by substrate addition and measured after 30 to 60 mins by microplate reader analysis relative to control
Settings: time 40-70 min
Sequence (P14902 whole entry, looked up, the tested form may be a part): as the sequence (P14902 whole entry, the tested form may be a part) above
Give bare numbers, in %.

Give inhibition for all molecules that follow.
1. FC(F)(F)c1cc(NC[C@@H]2CCCCN2)c2cn[nH]c2c1
2. O=[N+](O)c1c(Cl)cccc1CNc1cc(C(F)(F)F)cc2[nH]ncc12
3. N#Cc1cc(NCc2ccccc2[N+](=O)[O-])c2cn[nH]c2c1
4. FC(F)(F)c1cccc(CNc2cc(C(F)(F)F)cc3[nH]ncc23)c1
5. O=[N+]([O-])c1ccc2[nH]c(CNc3cc(C(F)(F)F)cc4[nH]ncc34)cc2c1
6. O=[N+]([O-])c1ccccc1CNc1cc(Br)cc2[nH]ncc12
7. O=[N+]([O-])c1ccccc1CNc1cccc2[nH]ncc12

[out]
1: 32; 2: 45; 3: 7; 4: 25; 5: 22; 6: 67; 7: 25

For each entry beneath this line, provide reported inhibition.
1. O=[N+]([O-])c1ccc(CNc2cc(C(F)(F)F)cc3[nH]ncc23)cc1
2. Oc1ccc(CNc2cc(C(F)(F)F)cc3[nH]ncc23)c(Cl)c1
3. O=[N+]([O-])c1cc(OCc2ccccc2)ccc1CNc1cc(C(F)(F)F)cc2[nH]ncc12
4. O=[N+]([O-])c1cc(Br)c(F)cc1CNc1cc(C(F)(F)F)cc2[nH]ncc12
5. O=[N+]([O-])c1cc(Cl)ccc1CNc1cc(C(F)(F)F)cc2[nH]ncc12

[out]
1. 52
2. 83
3. 10
4. 31
5. 50

Here are 4 molecules. What values of inhibition were reported for them?
1. Nc1cccc(CNc2cc(C(F)(F)F)cc3[nH]ncc23)c1
2. FC(F)(F)c1cc(NC[C@H]2CCCCN2)c2cn[nH]c2c1
3. O=C(O)c1cccc(CNc2cc(C(F)(F)F)cc3[nH]ncc23)c1
4. CC(C)n1ncc2c(NCc3ccccc3[N+](=O)[O-])cc(C(F)(F)F)cc21

[out]
[24, 19, 11, 7]

Please state, for each entry, its recorded inhibition.
1. O=C1NCc2c(NCc3ccccc3[N+](=O)[O-])cccc21
2. NCCn1ncc2c(NCc3ccccc3[N+](=O)[O-])cc(C(F)(F)F)cc21

[out]
1: 8; 2: 9

Could you tell me inhibition for each of these molecules? They are listed below.
1. COC(=O)c1cc(NCc2ccccc2[N+](=O)[O-])c2cn[nH]c2c1
2. O=[N+]([O-])c1ccc(O)cc1CNc1cc(Br)cc2[nH]ncc12

[out]
[11, 92]

[in] // inhibition lookup, key: "O=[N+]([O-])c1ccc(Cl)cc1CNc1cc(C(F)(F)F)cc2[nH]ncc12"
[out] 35

====

Molecular target: Tryptophan 2,3-dioxygenase (Homo sapiens)
Assay: Inhibition of human TDO
Value type: IC50 (nM)
Answers are plain numbers, in nM.

[[record]]
structure_smiles_string = "O[C@@H]1c2ccnn2CC[C@H]1[C@H]1c2ccccc2-c2cncn21"
display_unit = "nM"
reported_value = 130


[in] Entry "NC(=O)Nc1ccc(-c2c[nH]c3cc(F)ccc23)cc1" has what IC50?
[out] 78

====

Target: Indoleamine 2,3-dioxygenase 1 (Homo sapiens)
Experiment: Inhibition of N-terminal hexa-histidine tagged human IDO1 (12 to 403 residues) expressed in Escherichia coli Transetta (DE3) using L-tryptophan as substrate preincubated with enzyme for 10 mins followed by substrate addition and measured after 30 to 60 mins by microplate reader analysis
Value type: IC50

Answered cases to consult:
[[record]]
structure_smiles_string = "CC(C)n1ncc2c(NCc3ccccc3[N+](=O)[O-])cc(C(F)(F)F)cc21"
reported_value = "> 100 µM"

[[record]]
structure_smiles_string = "O=[N+]([O-])c1ccc2[nH]c(CNc3cc(C(F)(F)F)cc4[nH]ncc34)cc2c1"
reported_value = "> 100 µM"

[[record]]
structure_smiles_string = "CNC(=O)c1cccc(CNc2cc(C(F)(F)F)cc3[nH]ncc23)c1"
reported_value = "> 100 µM"


Please state IC50 for every compound in the list that follows.
1. COC(=O)c1cc(NCc2ccccc2[N+](=O)[O-])c2cn[nH]c2c1
2. FC(F)(F)c1cc(NCc2cccc3sccc23)c2cn[nH]c2c1
3. Cc1ccc(CNc2cc(C(F)(F)F)cc3[nH]ncc23)c([N+](=O)O)c1
4. O=[N+]([O-])c1ccccc1CNc1cc(Br)cc2[nH]ncc12
5. COc1cc(CNc2cc(Br)cc3[nH]ncc23)c([N+](=O)[O-])cc1OC
6. FC(F)(F)c1cc(NC[C@@H]2CCCCN2)c2cn[nH]c2c1
7. O=[N+]([O-])c1cc(OCc2ccccc2)ccc1CNc1cc(C(F)(F)F)cc2[nH]ncc12
8. N#Cc1cc(NCc2ccccc2[N+](=O)[O-])c2cn[nH]c2c1

[out]
1. > 100 µM
2. > 100 µM
3. > 100 µM
4. 8.04 µM
5. 18.5 µM
6. 18.7 µM
7. > 100 µM
8. > 100 µM

====

Molecular target: Tryptophan 2,3-dioxygenase (Homo sapiens, UniProt P48775)
Test: Inhibition of N-terminal hexa-histidine tagged human TDO (19 to 388 residues) expressed in Escherichia coli Transetta (DE3) using L-tryptophan as substrate preincubated with enzyme for 10 mins followed by substrate addition and measured after 30 to 60 mins by microplate reader analysis
Value type: pIC50
Numbers only, as −log10 of the molar value.

[[record]]
structure_smiles_string = "O=[N+](O)c1c(Cl)cccc1CNc1cc(C(F)(F)F)cc2[nH]ncc12"
value_type = "pIC50"
reported_value = 6.77

[[record]]
structure_smiles_string = "Cc1ccc(CNc2cc(C(F)(F)F)cc3[nH]ncc23)c([N+](=O)O)c1"
value_type = "pIC50"
reported_value = 6.21

[[record]]
structure_smiles_string = "O=[N+]([O-])c1cc(OCc2ccccc2)ccc1CNc1cc(C(F)(F)F)cc2[nH]ncc12"
value_type = "pIC50"
reported_value = 4.01

[[record]]
structure_smiles_string = "O=[N+]([O-])c1cc(Br)c(F)cc1CNc1cc(C(F)(F)F)cc2[nH]ncc12"
value_type = "pIC50"
reported_value = 5.84


Batch: pIC50 for all items listed.
1. FC(F)(F)c1cc(NCc2cccc(Br)c2)c2cn[nH]c2c1
2. O=C(O)c1cccc(CNc2cc(C(F)(F)F)cc3[nH]ncc23)c1
3. O=[N+]([O-])c1ccc(CNc2cc(Br)cc3[nH]ncc23)cc1
4. FC(F)(F)c1cc(NC[C@H]2CCCN2)c2cn[nH]c2c1

[out]
1. 4.72
2. 5.77
3. 5.65
4. 5.22

All values here come from ChEMBL document CHEMBL5108015.
